Each entry below carries its recorded tissue uptake at 2 h.
- assay-details: Biodistribution in mice bearing PC-3 xenografts
- Format: in vivo, Balb/c nu/nu mice
- assay-setup: Balb/c nu/nu, mouse, muscle, iv, 100 pmol, total radioactivity, PC-3 xenografted Balb/c nu/nu mice, iv 100 pmol; 2 h pi; mean ± SD, n = 4; read-out: Muscle activity uptake

{"columns": ["molecule", "tissue uptake at 2 h [%ID/g]"],
 "data": [
  ["CC(C)C[C@H](NC(=O)C[C@H](O)[C@H](CC(C)C)NC(=O)[C@H](Cc1c[nH]cn1)NC(=O)CN(C)C(=O)[C@@H](NC(=O)[C@H](C)NC(=O)[C@](C)(Cc1c[nH]c2ccccc12)NC(=O)[C@H](CCC(N)=O)NC(=O)[C@@H](Cc1ccccc1)NC(=O)CN1CCC(NC(=O)COCCOCCNC(=O)CCC(C(=O)O)N2CCN(CC(=O)O)CCN(CC(=O)O)CCN(CC(=O)O)CC2)CC1)C(C)C)C(N)=O (some centres unmarked) [[^177Lu]Lu-PKB2, metal not drawn]", 0.07],
  ["CC(C)C[C@H](NC(=O)C[C@H](O)[C@H](CC(C)C)NC(=O)[C@H](Cc1c[nH]cn1)NC(=O)CN(C)C(=O)[C@@H](NC(=O)[C@H](C)NC(=O)[C@](C)(Cc1c[nH]c2ccccc12)NC(=O)[C@H](CCC(N)=O)NC(=O)[C@@H](Cc1ccccc1)NC(=O)CN1CCC(NC(=O)COCCOCCNC(=O)CN2CCN(CC(=O)O)CCN(CC(=O)O)CCN(CC(=O)O)CC2)CC1)C(C)C)C(N)=O [[^177Lu]Lu-PKB3, metal not drawn]", 0.09]
]}

---

- assay-details: Biodistribution in mice bearing PC-3 xenografts
- Assay type: in vivo, Balb/c nu/nu mice
- assay-setup: Balb/c nu/nu, mouse, bone, iv, 100 pmol, total radioactivity, PC-3 xenografted Balb/c nu/nu mice, iv 100 pmol; 24 h pi; mean ± SD, n = 4; read-out: Bone activity uptake
Attribute: tissue uptake at 24 h

{"columns": ["compound", "units-text", "tissue uptake at 24 h"],
 "data": [
  ["CC(C)C[C@H](NC(=O)C[C@H](O)[C@H](CC(C)C)NC(=O)[C@H](Cc1c[nH]cn1)NC(=O)CN(C)C(=O)[C@@H](NC(=O)[C@H](C)NC(=O)[C@](C)(Cc1c[nH]c2ccccc12)NC(=O)[C@H](CCC(N)=O)NC(=O)[C@@H](Cc1ccccc1)NC(=O)CN1CCC(NC(=O)COCCOCCNC(=O)CN2CCN(CC(=O)O)CCN(CC(=O)O)CCN(CC(=O)O)CC2)CC1)C(C)C)C(N)=O [[^177Lu]Lu-PKB3, metal not drawn]", "%ID/g", 0.08],
  ["CC(C)C[C@H](NC(=O)C[C@H](O)[C@H](CC(C)C)NC(=O)[C@H](Cc1c[nH]cn1)NC(=O)CN(C)C(=O)[C@@H](NC(=O)[C@H](C)NC(=O)[C@](C)(Cc1c[nH]c2ccccc12)NC(=O)[C@H](CCC(N)=O)NC(=O)[C@@H](Cc1ccccc1)NC(=O)CN1CCC(NC(=O)COCCOCCNC(=O)CCC(C(=O)O)N2CCN(CC(=O)O)CCN(CC(=O)O)CCN(CC(=O)O)CC2)CC1)C(C)C)C(N)=O (some centres unmarked) [[^177Lu]Lu-PKB2, metal not drawn]", "%ID/g", 0.09]
]}
